All figures here come from paper PMC11041979.

Run description: Pharmacokinetics of MA in rats after oral gavage
Type: in vivo, Sprague-Dawley rats
Test conditions: Sprague-Dawley, rat, plasma, po, 20 mg/kg
Experimental readout: AUC(0-t) (ng·h/mL)
// note: answer is a bare numeric in ng·h/mL

get_value(item= O=c1c2cc(O)c(O)cc2oc2cc(O)c([C@@H]3O[C@H](CO)[C@@H](O)[C@H](O)[C@H]3O)c(O)c12 , readout=AUC(0-t)) returns 1.52

* * *

Run description: Pharmacokinetics of MA in rats after oral gavage
Type: in vivo, Sprague-Dawley rats
Test conditions: Sprague-Dawley, rat, plasma, po, 20 mg/kg
Experimental readout: half-life (min)
// note: answer is a bare numeric in min

get_value(item= O=c1c2cc(O)c(O)cc2oc2cc(O)c([C@@H]3O[C@H](CO)[C@@H](O)[C@H](O)[C@H]3O)c(O)c12 , readout=half-life) returns 196

* * *

Run description: Pharmacokinetics of MA in rats after oral gavage
Assay type: in vivo, Sprague-Dawley rats
Test conditions: Sprague-Dawley, rat, plasma, po, 20 mg/kg
Experimental readout: Cmax (ng/mL)
// note: answer is a bare numeric in ng/mL

get_value(item= O=c1c2cc(O)c(O)cc2oc2cc(O)c([C@@H]3O[C@H](CO)[C@@H](O)[C@H](O)[C@H]3O)c(O)c12 , readout=Cmax) returns 0.201

* * *

Run description: Pharmacokinetics of MA in rats after oral gavage
Type: in vivo, Sprague-Dawley rats
Test conditions: Sprague-Dawley, rat, plasma, po, 20 mg/kg
Experimental readout: Tmax
Answer format: value, then unit.

get_value(item= O=c1c2cc(O)c(O)cc2oc2cc(O)c([C@@H]3O[C@H](CO)[C@@H](O)[C@H](O)[C@H]3O)c(O)c12 , readout=Tmax) returns 4 h
